The values you see were collected from PubChem BioAssay (Tox21).

# Experiment Description: qHTS assay to identify small molecule antagonists of the estrogen receptor alpha (ER-alpha) signaling pathway - cell viability counter screen (AID 743074);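 also: HEK293 cells carrying ER-alpha-UAS-bla reporter stimulated with 17beta-estradiol; nearly all actives have a fitted effect of over 45% in size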
# Experimental Parameters: ERalpha-bla HEK293 viability, CellTiter-Glo luminescence, 18 h; series mostly up to 69.4 µM
Results filed as inconclusive are left out. Activity calls are given as the source filed them. Calls follow the shape of the full dose curve.
# valid calls are class 1 for active, class 0 for inactive; nothing else

Tell me the assay call for NC(=O)c1cccnc1 please.
class 0

State the result this test recorded for CC(=O)CCC(=O)O .
class 0

Outcome? CC(C)c1c(C(=O)Nc2ccccc2)c(-c2ccccc2)c(-c2ccc(F)cc2)n1CC[C@@H](O)C[C@@H](O)CC(=O)O
class 0

Per the records of this test, what outcome belongs to CCc1nc(N)nc(N)c1-c1ccc(Cl)cc1 ?
class 1

// return assay outcome for O=S1(=O)OC(c2ccc(O)cc2)(c2ccc(O)cc2)c2ccccc21
class 0

What call does the record list for Nc1c2c(nc3ccccc13)CCCC2 ?
class 0

Record request — test call for NS(=O)(=O)O
class 0

Tell me the recorded outcome of this test for NC1CCCCC1 .
class 0

Query: recorded result category for CC(=O)CC(c1ccccc1)c1c(O)c2ccccc2oc1=O (stereo unspecified) in this test
class 0

Just curious, what result did O=C1O[C@H]([C@@H](O)CO)C(O)=C1O get here?
class 0

# lookup: test call for COc1ccc2cc(S(=O)(=O)N[C@H](CC(=O)N[C@H](Cc3ccc(CN4[C@H](C)CCC[C@@H]4C)cc3)C(=O)N(C)C(C)C)c3ccc4c(c3)OCO4)ccc2c1
class 1

----------
# Experiment Description: qHTS assay to test for compound auto fluorescence at 460 nm (blue) in HepG2 cells (AID 720687)
# Experimental Parameters: autofluorescence 405/460 nm, 1 h; series mostly up to 91.3 µM
# Description: U.S. Tox21 Program National Center for Advancing Translational Sciences [NCATS] NIH Chemical Genomics Center [NCGC] U.S. Environmental Protection Agency [EPA] National Institutes of Environmental Health Sciences [NIEHS] National Toxicology Program [NTP] U.S. Food and Drug Administration [FDA] Tox21 Assay Overview: Compound auto fluorescence often interferes with screening of the compound library against various biological targets and signaling pathways. […] This assay includes the blue fluorescence data. […]
Active and inactive are the calls of the source. The call rests on the fitted dose curve; in most records, active means well fitted curve in the direction sought with a large enough effect in the repeat runs; inconclusive means weak or mixed curves; inactive means flat fitted curve, though single readings scatter.
Quantity Measured: outcome

Please review the following examples before continuing.
INSERT INTO results (compound, value) VALUES
  ('CC(C)NCC(O)c1ccc(O)c(O)c1 (stereo not given)', 'inactive'),
  ('C=CCc1ccc(O)c(OC)c1', 'inactive'),
  ('COc1ccc(CN(CCN(C)C)c2ccccn2)cc1', 'inactive'),
  ('NC(=O)n1c(O)c(C(=O)c2cccs2)c2cc(Cl)ccc21', 'inactive');

Which value of outcome has been reported for CCCc1cc(=O)[nH]c(=S)[nH]1 in the records?
inactive

----------
# Experiment Description: qHTS assay for small molecule agonists of the antioxidant response element (ARE) signaling pathway - cell viability counter screen (AID 743203); also: nearly all actives have a fitted effect of over 55% in size
# Experimental Parameters: ARE-bla HepG2 viability, CellTiter-Glo luminescence, 16 h; series mostly up to 73.3 µM
Results filed as inconclusive are left out. Calls of active or inactive are those of the source. Calls come from the whole dose curve.
Returns: one label drawn from active, inactive

Write down the call the test reported for this molecule. Item: C[C@](N)(Cc1ccc(O)c(O)c1)C(=O)O
inactive

Fill in: this test's call for CC(=O)CCC(=O)O is ___
inactive

Dear all, I need the recorded test outcome for OC[C@H]1O[C@H](O[C@]2(CCl)O[C@H](CCl)[C@@H](O)[C@@H]2O)[C@H](O)[C@@H](O)[C@H]1Cl , thank you.
inactive

I'd appreciate the recorded outcome for C1CCC(C(CC2CCCCN2)C2CCCCC2)CC1 (centres undefined) from this test.
active

Could you kindly confirm the outcome this assay logged for C/C=C/C=C/C(=O)O ?
inactive

Which outcome was assigned to CC12CCC(CC1)C(C)(C)O2 in this test?
inactive

Per the assay record, what outcome was assigned to CC1(C)O[C@@H]2C[C@H]3[C@@H]4CCC5=CC(=O)C=C[C@]5(C)[C@@]4(F)[C@@H](O)C[C@]3(C)[C@]2(C(=O)CO)O1 ?
inactive

Call for entry NC(CO)(CO)CO :
inactive

Record request — test call for COc1ccc(C(Cl)=C(c2ccc(OC)cc2)c2ccc(OC)cc2)cc1
inactive

Just curious, what result did O=c1[nH]cc(F)c(=O)[nH]1 get here?
inactive

Could you check what this test reported for CCCCC(CC)C(=O)O (centres undefined) ?
inactive

Short answer needed: outcome of this test for Nc1ccc(S(N)(=O)=O)cc1 ?
inactive

State the result this test recorded for CC(=O)CC(c1ccccc1)c1c(O)c2ccccc2oc1=O (centres undefined) .
inactive

Each molecule tested received a call. Report the one for CCCc1cc(=O)[nH]c(=S)[nH]1 .
inactive

# fetch the recorded call for CCOC(N)=O here
inactive

Any idea what this test logged for CCOc1ccc(NC(C)=O)cc1 ?
inactive

Outcome logged for CCCCC1(COC(=O)CCC(=O)O)C(=O)N(c2ccccc2)N(c2ccccc2)C1=O in this assay:
inactive

Just curious, what result did CN(N=O)C(=O)N[C@@H]1[C@@H](O)[C@H](O)[C@@H](CO)O[C@@H]1O get here?
inactive

Hi team, can someone confirm the assay call for CC(O)(P(=O)(O)O)P(=O)(O)O ?
inactive
